Species on record: Cavia porcellus
ASSAY DETAILS: Selectivity ratio of ED50 for beta-2 adrenergic receptor in guinea pig trachea over ED50 for beta-1 adrenergic receptor in guinea pig atria
MEASUREMENT TYPE: Ratio ED50

CC(C)(C)NCC(O)COc1ccc(NS(C)(=O)=O)c(O)c1 (centres undefined) = > 27
CC(C)(C)NCC(O)COc1ccc(O)cc1 (centres undefined) = 3.8
CC(C)NCC(O)c1ccc(O)c(NS(C)(=O)=O)c1 (centres undefined) = 2.9

# evaluate next
# input Return value of Ratio ED50 for input CC(C)(C)NC[C@H](O)c1ccc(O)c(O)c1 , no commentary.
# output 5.5
